Below: a set of entries, each annotated with reported %-inhibition, CGK2.
Target: panel of more than 300 wild-type and mutant kinases (313 kinase panel) (Homo sapiens)
Assay: Kinase profiling in a biochemical assay panel (mobility shift assays and ELISA), %-inhibition at 1 μM; selectivity entropy
Conditions: kinase CGK2; 1 μM compound

compound | unit-tag | %-inhibition, CGK2
C[C@@H](Oc1cc(-c2cnn(C3CCNCC3)c2)cnc1N)c1c(Cl)ccc(F)c1Cl | % | -0.915
COc1cc(Nc2c(C#N)cnc3cc(OCCCN4CCN(C)CC4)c(OC)cc23)c(Cl)cc1Cl | % | -0.53
CS(=O)(=O)CCNCc1ccc(-c2ccc3ncnc(Nc4ccc(OCc5cccc(F)c5)c(Cl)c4)c3c2)o1 | % | -9
Cc1cn(-c2cc(NC(=O)c3ccc(C)c(Nc4nccc(-c5cccnc5)n4)c3)cc(C(F)(F)F)c2)cn1 | % | 12
CCCS(=O)(=O)Nc1ccc(F)c(C(=O)c2c[nH]c3ncc(-c4ccc(Cl)cc4)cc23)c1F | % | -2.26
COc1cc2c(Nc3ccc(Br)cc3F)ncnc2cc1OCC1CCN(C)CC1 | % | -2.65
Cc1ccc(Nc2nccc(N(C)c3ccc4c(C)n(C)nc4c3)n2)cc1S(N)(=O)=O | % | -1
CO[C@H]1C[C@@H]2CC[C@@H](C)[C@@](O)(O2)C(=O)C(=O)N2CCCC[C@H]2C(=O)O[C@H]([C@H](C)C[C@@H]2CC[C@@H](OC(=O)C(C)(CO)CO)[C@H](OC)C2)CC(=O)[C@H](C)/C=C(\C)[C@@H](O)[C@@H](OC)C(=O)[C@H](C)C[C@H](C)/C=C/C=C/C=C/1C | % | -2.84
O=S(=O)(c1cccc2cnccc12)N1CCCNCC1 | % | 46
CC(C)(C)c1nc(-c2cccc(NS(=O)(=O)c3c(F)cccc3F)c2F)c(-c2ccnc(N)n2)s1 | % | -1.38
COc1cc2nccc(Oc3ccc(NC(=O)C4(C(=O)Nc5ccc(F)cc5)CC4)cc3)c2cc1OC [cabozantinib] | % | -2.55
CNC(=O)c1cc(Oc2ccc(NC(=O)Nc3ccc(Cl)c(C(F)(F)F)c3)c(F)c2)ccn1 | % | -1.78
Cc1nc(Nc2ncc(C(=O)Nc3c(C)cccc3Cl)s2)cc(N2CCN(CCO)CC2)n1 | % | -6
Cc1ccc(C(=O)Nc2ccc(CN3CCN(C)CC3)c(C(F)(F)F)c2)cc1C#Cc1cnc2cccnn12 | % | 12
CC(=O)Nc1cccc(-n2c(=O)n(C3CC3)c(=O)c3c(Nc4ccc(I)cc4F)n(C)c(=O)c(C)c32)c1 | % | -2.61
CO[C@H]1C[C@@H]2CC[C@@H](C)[C@@](O)(O2)C(=O)C(=O)N2CCCC[C@H]2C(=O)O[C@H]([C@H](C)C[C@@H]2CC[C@@H](OCCO)[C@H](OC)C2)CC(=O)[C@H](C)/C=C(\C)[C@@H](O)[C@@H](OC)C(=O)[C@H](C)C[C@H](C)/C=C/C=C/C=C/1C | % | -4.58

Provenance of the data: paper PMC3961306
